Where these numbers come from: PubChem BioAssay AID248

// reported T/C per item
- System: L1210 leukemia ip in BDF1 mice, survival T/C
- EXPERIMENT_NOTES: NCI In Vivo Anticancer Drug Screen. Data for tumor model L1210 Leukemia (intraperitoneal) in B6D2F1 (BDF1) mice
- RUN_CONDITIONS: endpoint: mean survival time; dose: 25.0 mg/kg/injection; schedule: Q01DX009 (ip); vehicle: saline; higher = longer survival
Toxic doses and inconclusive results are not listed.

{"columns": ["COMPOUND", "SYSTEM_UNDER_TEST", "T/C"],
 "data": [
  ["CC(CCc1ccccc1)NC(C)C(O)c1ccc(O)cc1 (configuration not stated)", "L1210 leukemia ip in BDF1 mice, survival T/C", "98 % of control"],
  ["CC1=C/C(=N/N(C)C)CC(C)C1 (configuration not stated)", "L1210 leukemia ip in BDF1 mice, survival T/C", "102 % of control"],
  ["COc1ccc2c(c1)C13CCN(C)C(C2)C1CCC1(C3)OCCO1 (configuration not stated)", "L1210 leukemia ip in BDF1 mice, survival T/C", "94 % of control"],
  ["NCc1cc2c3c(c1)CCCN3CCC2", "L1210 leukemia ip in BDF1 mice, survival T/C", "97 % of control"],
  ["C1CC2CCC[N+]3=C2C(C1)CCC3 (configuration not stated)", "L1210 leukemia ip in BDF1 mice, survival T/C", "101 % of control"],
  ["Cc1nc(Cl)c2cnccn12", "L1210 leukemia ip in BDF1 mice, survival T/C", "105 % of control"],
  ["CCCCCCCCCCCCCCCC[N+]1(C)CCN(SN2CC[N+](C)(CCCCCCCCCCCCCCCC)CC2)CC1", "L1210 leukemia ip in BDF1 mice, survival T/C", "98 % of control"],
  ["CNCCOC(c1ccccc1)c1ccccc1C (configuration not stated)", "L1210 leukemia ip in BDF1 mice, survival T/C", "101 % of control"],
  ["CCCCNc1cc2c3c(c1)CCCN3CCC2", "L1210 leukemia ip in BDF1 mice, survival T/C", "103 % of control"],
  ["N=c1ccc2nc3ccc(N)cc3sc-2c1", "L1210 leukemia ip in BDF1 mice, survival T/C", "112 % of control"],
  ["C=CCc1cccc(CC=C)c1OCCN(CC)CC", "L1210 leukemia ip in BDF1 mice, survival T/C", "98 % of control"],
  ["CCOC(=O)N(CCCCCCNC(c1ccccc1)S(=O)(=O)O)c1ccccc1 (configuration not stated)", "L1210 leukemia ip in BDF1 mice, survival T/C", "106 % of control"]
]}

###

Each entry below carries its reported T/C.
- Tested on: L1210 leukemia ip in BDF1 mice, survival T/C
- EXPERIMENT_NOTES: NCI In Vivo Anticancer Drug Screen. Data for tumor model L1210 Leukemia (intraperitoneal) in B6D2F1 (BDF1) mice
- RUN_CONDITIONS: endpoint: mean survival time; dose: 200.0 mg/kg/injection; schedule: Q01DX001 (ip); vehicle: saline; higher = longer survival
Inconclusive results and toxic doses are left out.

{"columns": ["COMPOUND", "SYSTEM_UNDER_TEST", "T/C"],
 "data": [
  ["CCCCSC(C)(C)CC", "L1210 leukemia ip in BDF1 mice, survival T/C", "107 % of control"],
  ["Cc1ccc2c(c1[N+](=O)[O-])C(=O)c1ccccc1C2=O", "L1210 leukemia ip in BDF1 mice, survival T/C", "90 % of control"],
  ["NC(=O)n1cnc(N)n1", "L1210 leukemia ip in BDF1 mice, survival T/C", "104 % of control"],
  ["CC(COc1cc(Cl)c(Cl)cc1Cl)OC(=O)COc1ccc(Cl)cc1Cl (stereo not drawn)", "L1210 leukemia ip in BDF1 mice, survival T/C", "95 % of control"],
  ["OC1CSC1", "L1210 leukemia ip in BDF1 mice, survival T/C", "100 % of control"],
  ["CCC1CN2CCc3cc(OC)c(OC)cc3C2CC1CC1c2cc(OC)c(OC)cc2CCN1C(=O)C(N)Cc1ccccc1 (stereo not drawn)", "L1210 leukemia ip in BDF1 mice, survival T/C", "97 % of control"],
  ["O=C(O)c1ccc(NC(Nc2ccc(C(=O)O)cc2)C(=O)c2ccccc2)cc1", "L1210 leukemia ip in BDF1 mice, survival T/C", "89 % of control"],
  ["C[N+](C)(C)Cc1ccccc1C[N+](C)(C)C", "L1210 leukemia ip in BDF1 mice, survival T/C", "97 % of control"],
  ["COC(=O)C1C(=O)OC(C)(C)C1c1ccccc1 (stereo not drawn)", "L1210 leukemia ip in BDF1 mice, survival T/C", "91 % of control"],
  ["CCCC(=O)CCNC", "L1210 leukemia ip in BDF1 mice, survival T/C", "94 % of control"],
  ["NC(=O)Oc1ccccc1", "L1210 leukemia ip in BDF1 mice, survival T/C", "98 % of control"],
  ["Cc1nnc(NS(=O)(=O)c2ccc(N=Nc3ccc(O)c4ncccc34)cc2)s1", "L1210 leukemia ip in BDF1 mice, survival T/C", "102 % of control"],
  ["CCOC(OCC)C(C)(C)OC=O", "L1210 leukemia ip in BDF1 mice, survival T/C", "103 % of control"]
]}

###

- Test system: L1210 leukemia ip in BDF1 mice, survival T/C
- EXPERIMENT_NOTES: NCI In Vivo Anticancer Drug Screen. Data for tumor model L1210 Leukemia (intraperitoneal) in B6D2F1 (BDF1) mice
- RUN_CONDITIONS: endpoint: mean survival time; dose: 400.0 mg/kg/injection; schedule: Q04DX003 (ip); vehicle: saline; higher = longer survival
Inconclusive results and toxic doses are left out.
ASSAY_READOUT: T/C

{"columns": ["MOLECULE", "MEASURED_RESULT"],
 "data": [
  ["NCC(=O)NC(CO)C(=O)O (configuration not stated)", "100 % of control"],
  ["CCOC(=O)CC(=O)CCc1ccccc1", "105 % of control"],
  ["COc1cccc(/C=C(/SC)S(C)=O)c1OC (configuration not stated)", "102 % of control"],
  ["CCOS(=O)O", "98 % of control"],
  ["Cn1cc(C(N)=O)ccc1=N", "106 % of control"],
  ["CC1(C)OC2C(CO)OC(OCc3ccccc3)C2O1 (configuration not stated)", "88 % of control"],
  ["O=C(COc1ccccc1)NCc1ccccc1", "92 % of control"],
  ["CC(=O)OC1C(OC(C)=O)C2C(C)(C)CCCC2(C)C2Cc3occc3C(C)C12 (configuration not stated)", "103 % of control"],
  ["Nc1cccc2ncccc12", "103 % of control"],
  ["CC12CC3CC(Br)(C1)CC(C(=O)O)(C3)C2 (configuration not stated)", "110 % of control"],
  ["NC1=NC(=O)CS1", "86 % of control"],
  ["COC(=O)c1c[nH]c2ccc(Br)cc12", "89 % of control"]
]}

###

- Tested on: L1210 leukemia ip in BDF1 mice, survival T/C
- EXPERIMENT_NOTES: NCI In Vivo Anticancer Drug Screen. Data for tumor model L1210 Leukemia (intraperitoneal) in B6D2F1 (BDF1) mice
- RUN_CONDITIONS: endpoint: mean survival time; dose: 12.5 mg/kg/injection; schedule: Q04DX003 (ip); vehicle: saline; higher = longer survival
Inconclusive results and toxic doses are left out.

{"columns": ["MOLECULE", "T/C"],
 "data": [
  ["CC(CN1CCN(CCOCCO)CC1)CN1c2ccccc2Sc2ccc(Cl)cc21 (configuration not stated)", "111 % of control"],
  ["CCN(CC)C(=O)N1C2CCC1CN(C)C2", "103 % of control"],
  ["O=C(O)C1C(C(=O)O)C23CC2(C(=O)O)C2(C(=O)O)CCC3=C3CCCC312 (configuration not stated)", "104 % of control"],
  ["CC1OC(=O)C(C2OC2C)=CC1O (configuration not stated)", "101 % of control"],
  ["CC(CCc1ccccc1)NC(C)C(O)c1ccc(O)cc1 (configuration not stated)", "94 % of control"],
  ["CCCCCc1ccc(/C(C)=N/NC(=O)c2ccc[n+](C)c2)cc1", "95 % of control"],
  ["Clc1ccc(CSC2=NCCN2)cc1", "94 % of control"]
]}

###

- Tested on: L1210 leukemia ip in BDF1 mice, survival T/C
- EXPERIMENT_NOTES: NCI In Vivo Anticancer Drug Screen. Data for tumor model L1210 Leukemia (intraperitoneal) in B6D2F1 (BDF1) mice
- RUN_CONDITIONS: endpoint: mean survival time; dose: 400.0 mg/kg/injection; schedule: Q04DX002 (ip); vehicle: saline with Tween-80; higher = longer survival
Inconclusive results and toxic doses are left out.
Property: T/C; scope: individual molecules

{"columns": ["MOLECULE", "SYSTEM_UNDER_TEST", "T/C"],
 "data": [
  ["NC(=O)c1c(/N=C/c2cc(Br)ccc2O)sc2c1CCCC2", "L1210 leukemia ip in BDF1 mice, survival T/C", "87 % of control"],
  ["Cc1cc2c(cc1C)C(=O)CCC2", "L1210 leukemia ip in BDF1 mice, survival T/C", "90 % of control"],
  ["CCCCN(CCCC)S(=O)(=O)CCl", "L1210 leukemia ip in BDF1 mice, survival T/C", "105 % of control"],
  ["O=S(=O)(F)c1ccc(Cl)cc1CBr", "L1210 leukemia ip in BDF1 mice, survival T/C", "92 % of control"],
  ["O=[N+]([O-])c1ccc2c(c1)OCCOCCOCCOCCO2", "L1210 leukemia ip in BDF1 mice, survival T/C", "87 % of control"],
  ["CC(C)CC/C=C/c1ccccc1", "L1210 leukemia ip in BDF1 mice, survival T/C", "92 % of control"],
  ["CC(=O)c1cccc(NC(=O)Oc2ccc(-c3ccccc3)cc2)c1", "L1210 leukemia ip in BDF1 mice, survival T/C", "91 % of control"],
  ["O=NN(CC(=O)O)c1ccc2ccccc2c1", "L1210 leukemia ip in BDF1 mice, survival T/C", "93 % of control"],
  ["C1CCC2C(C1)CCC1C2OCN2CCCCC12 (stereo not drawn)", "L1210 leukemia ip in BDF1 mice, survival T/C", "96 % of control"],
  ["COC(=O)CC(CC(=O)OC)c1cccc([N+](=O)[O-])c1", "L1210 leukemia ip in BDF1 mice, survival T/C", "86 % of control"],
  ["NOC(=O)c1cccc(Cl)c1", "L1210 leukemia ip in BDF1 mice, survival T/C", "96 % of control"],
  ["O=P(Nc1ccccc1)(N1CCCCC1)N1CCCCC1", "L1210 leukemia ip in BDF1 mice, survival T/C", "108 % of control"],
  ["COc1cc(C(=O)Nc2ccccc2)cc(OC)c1OC", "L1210 leukemia ip in BDF1 mice, survival T/C", "95 % of control"]
]}
